# melting point annotations

# entry_smiles, melting point
rows = [
    ("O=C(COc1ccc(/C=C2\\SC(=O)N(Cc3cccc4cc5ccccc5nc34)C2=O)cc1)Nc1cccc(C(F)(F)F)c1", "219 to 220 °C (dec.)"),
    ("O=C(COc1ccc(/C=C2\\SC(=O)N(Cc3c4ccccc4nc4ccccc34)C2=O)cc1)Nc1ccc([N+](=O)[O-])cc1", "293 to 294 °C"),
    ("O=C(COc1ccc(/C=C2\\SC(=O)N(Cc3c4ccccc4nc4ccccc34)C2=O)cc1)Nc1cc(C(F)(F)F)cc(C(F)(F)F)c1", "227 to 228 °C (dec.)"),
]
